run.parameters: in isopropanol, 315.65 K
measured.metric: solubility (mole fraction)

• O=Cc1ccc(O)cc1 = 0.259

* * *

run.parameters: in isopropanol, 310.65 K
measured.metric: solubility (mole fraction)

• O=Cc1ccc(O)cc1 = 0.218

* * *

run.parameters: in isopropanol, 283.15 K
measured.metric: solubility (mole fraction)

- O=Cc1ccc(O)cc1: 0.0683

* * *

run.parameters: in toluene, 305.65 K
measured.metric: solubility (mole fraction)

- O=Cc1ccc(O)cc1: 0.00283

* * *

run.parameters: in n-propanol, 280.65 K
measured.metric: solubility (mole fraction)

- O=Cc1ccc(O)cc1: 0.0597

* * *

run.parameters: in DMF, 288.15 K
measured.metric: solubility (mole fraction)

• O=Cc1ccc(O)cc1 = 0.131

* * *

run.parameters: in 1,4-dioxane, 285.65 K
measured.metric: solubility (mole fraction)

• O=Cc1ccc(O)cc1 = 0.0555

* * *

run.parameters: in acetone, 283.15 K
measured.metric: solubility (mole fraction)

• O=Cc1ccc(O)cc1 = 0.0889

* * *

run.parameters: in acetonitrile, 308.15 K
measured.metric: solubility (mole fraction)

• O=Cc1ccc(O)cc1 = 0.116

* * *

run.parameters: in ethyl acetate, 315.65 K
measured.metric: solubility (mole fraction)

• O=Cc1ccc(O)cc1 = 0.272

* * *

run.parameters: in isopropanol, 313.15 K
measured.metric: solubility (mole fraction)

- O=Cc1ccc(O)cc1: 0.238

* * *

run.parameters: in acetonitrile, 303.15 K
measured.metric: solubility (mole fraction)

• O=Cc1ccc(O)cc1 = 0.0957

* * *

run.parameters: in 1,4-dioxane, 290.65 K
measured.metric: solubility (mole fraction)

• O=Cc1ccc(O)cc1 = 0.0772

* * *

run.parameters: in 1,4-dioxane, 293.15 K
measured.metric: solubility (mole fraction)

- O=Cc1ccc(O)cc1: 0.0905

* * *

run.parameters: in methanol, 318.15 K
measured.metric: solubility (mole fraction)

* O=Cc1ccc(O)cc1 | 0.224

* * *

run.parameters: in methanol, 288.15 K
measured.metric: solubility (mole fraction)

- O=Cc1ccc(O)cc1: 0.0587

* * *

run.parameters: in acetone, 290.65 K
measured.metric: solubility (mole fraction)

• O=Cc1ccc(O)cc1 = 0.12

* * *

run.parameters: in acetone, 313.15 K
measured.metric: solubility (mole fraction)

* O=Cc1ccc(O)cc1 | 0.259

* * *

run.parameters: in isopropanol, 290.65 K
measured.metric: solubility (mole fraction)

• O=Cc1ccc(O)cc1 = 0.0972

* * *

run.parameters: in 2-butanone, 298.15 K
measured.metric: solubility (mole fraction)

* O=Cc1ccc(O)cc1 | 0.163

* * *

run.parameters: in 1,4-dioxane, 318.15 K
measured.metric: solubility (mole fraction)

- O=Cc1ccc(O)cc1: 0.334

* * *

run.parameters: in acetonitrile, 293.15 K
measured.metric: solubility (mole fraction)

* O=Cc1ccc(O)cc1 | 0.0632

* * *

run.parameters: in 1,4-dioxane, 308.15 K
measured.metric: solubility (mole fraction)

- O=Cc1ccc(O)cc1: 0.211

* * *

run.parameters: in n-butanol, 305.65 K
measured.metric: solubility (mole fraction)

- O=Cc1ccc(O)cc1: 0.171

* * *

run.parameters: in ethyl acetate, 298.15 K
measured.metric: solubility (mole fraction)

• O=Cc1ccc(O)cc1 = 0.155

* * *

run.parameters: in acetonitrile, 283.15 K
measured.metric: solubility (mole fraction)

- O=Cc1ccc(O)cc1: 0.0405

* * *

run.parameters: in toluene, 298.15 K
measured.metric: solubility (mole fraction)

* O=Cc1ccc(O)cc1 | 0.00217

* * *

run.parameters: in acetone, 308.15 K
measured.metric: solubility (mole fraction)

• O=Cc1ccc(O)cc1 = 0.222

* * *

run.parameters: in 2-butanone, 318.15 K
measured.metric: solubility (mole fraction)

- O=Cc1ccc(O)cc1: 0.309

* * *

run.parameters: in 1,4-dioxane, 310.65 K
measured.metric: solubility (mole fraction)

• O=Cc1ccc(O)cc1 = 0.238

* * *

run.parameters: in toluene, 318.15 K
measured.metric: solubility (mole fraction)

* O=Cc1ccc(O)cc1 | 0.00435

* * *

run.parameters: in acetone, 315.65 K
measured.metric: solubility (mole fraction)

• O=Cc1ccc(O)cc1 = 0.279

* * *

run.parameters: in 1,4-dioxane, 305.65 K
measured.metric: solubility (mole fraction)

• O=Cc1ccc(O)cc1 = 0.186

* * *

run.parameters: in ethanol, 293.15 K
measured.metric: solubility (mole fraction)

- O=Cc1ccc(O)cc1: 0.0914

* * *

run.parameters: in ethanol, 278.15 K
measured.metric: solubility (mole fraction)

* O=Cc1ccc(O)cc1 | 0.043

* * *

run.parameters: in acetonitrile, 298.15 K
measured.metric: solubility (mole fraction)

• O=Cc1ccc(O)cc1 = 0.0782

* * *

run.parameters: in methanol, 280.65 K
measured.metric: solubility (mole fraction)

• O=Cc1ccc(O)cc1 = 0.0392

* * *

run.parameters: in DMF, 305.65 K
measured.metric: solubility (mole fraction)

- O=Cc1ccc(O)cc1: 0.302

* * *

run.parameters: in n-butanol, 293.15 K
measured.metric: solubility (mole fraction)

- O=Cc1ccc(O)cc1: 0.107

* * *

run.parameters: in ethanol, 305.65 K
measured.metric: solubility (mole fraction)

* O=Cc1ccc(O)cc1 | 0.156

* * *

run.parameters: in DMF, 278.15 K
measured.metric: solubility (mole fraction)

- O=Cc1ccc(O)cc1: 0.0741

* * *

run.parameters: in n-propanol, 285.65 K
measured.metric: solubility (mole fraction)

* O=Cc1ccc(O)cc1 | 0.0751

* * *

run.parameters: in isopropanol, 278.15 K
measured.metric: solubility (mole fraction)

- O=Cc1ccc(O)cc1: 0.0535

* * *

run.parameters: in 2-butanone, 285.65 K
measured.metric: solubility (mole fraction)

* O=Cc1ccc(O)cc1 | 0.101

* * *

run.parameters: in DMF, 308.15 K
measured.metric: solubility (mole fraction)

* O=Cc1ccc(O)cc1 | 0.338

* * *

run.parameters: in toluene, 310.65 K
measured.metric: solubility (mole fraction)

* O=Cc1ccc(O)cc1 | 0.0034

* * *

run.parameters: in n-butanol, 278.15 K
measured.metric: solubility (mole fraction)

- O=Cc1ccc(O)cc1: 0.0545

* * *

run.parameters: in ethyl acetate, 308.15 K
measured.metric: solubility (mole fraction)

• O=Cc1ccc(O)cc1 = 0.216

From: BigSolDB 2.1
